- Target desc: Inositol hexakisphosphate kinase 3 (Homo sapiens, UniProt Q96PC2)
- Sequence (Q96PC2 whole entry): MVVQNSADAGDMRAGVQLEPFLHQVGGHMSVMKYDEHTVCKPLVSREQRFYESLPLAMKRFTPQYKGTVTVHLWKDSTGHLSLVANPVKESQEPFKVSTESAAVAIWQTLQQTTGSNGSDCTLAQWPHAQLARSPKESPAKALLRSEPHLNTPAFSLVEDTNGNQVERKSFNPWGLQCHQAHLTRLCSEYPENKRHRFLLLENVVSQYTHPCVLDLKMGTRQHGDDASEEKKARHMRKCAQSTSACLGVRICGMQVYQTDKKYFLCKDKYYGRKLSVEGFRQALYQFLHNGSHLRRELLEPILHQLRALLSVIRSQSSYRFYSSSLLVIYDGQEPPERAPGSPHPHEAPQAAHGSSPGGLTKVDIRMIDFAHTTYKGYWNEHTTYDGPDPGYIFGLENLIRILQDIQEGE
- Experimental details: Inhibition of N-terminal 6His-sumo-tagged recombinant human IP6K3 expressed in Escherichia coli assessed as inorganic phosphate release using InsP6 as substrate in presence of ATP measured after 60 to 120 mins by malachite green based colorimetric - DIPP1 coupled enzyme assay
pIC50: −log10 of the molar value.
# if value of pIC50 reaches 6, tag 1; if it stays below, tag 0

INSERT INTO results (compound, target_desc, label) VALUES
  ('O=C(O)c1ccc2noc(-c3cccc(Oc4ccccn4)c3)c2c1', 'Inositol hexakisphosphate kinase 3 (Homo sapiens, UniProt Q96PC2)', 0),
  ('Cc1cc(C)cc(-c2onc3ccc(C(=O)O)cc23)c1', 'Inositol hexakisphosphate kinase 3 (Homo sapiens, UniProt Q96PC2)', 0),
  ('O=C(O)c1ccc2noc(-c3ccc(Oc4ncc(Cl)cc4Cl)cc3)c2c1', 'Inositol hexakisphosphate kinase 3 (Homo sapiens, UniProt Q96PC2)', 0),
  ('O=C(O)c1ccc2noc(-c3ccc(NC(=O)c4ccccc4)cc3)c2c1', 'Inositol hexakisphosphate kinase 3 (Homo sapiens, UniProt Q96PC2)', 1),
  ('Cc1cccc(-c2onc3ccc(/C=C/C(=O)O)cc23)c1', 'Inositol hexakisphosphate kinase 3 (Homo sapiens, UniProt Q96PC2)', 0);
